# target-of-assay: UniProt P11362
# Sequence (P11362 whole entry): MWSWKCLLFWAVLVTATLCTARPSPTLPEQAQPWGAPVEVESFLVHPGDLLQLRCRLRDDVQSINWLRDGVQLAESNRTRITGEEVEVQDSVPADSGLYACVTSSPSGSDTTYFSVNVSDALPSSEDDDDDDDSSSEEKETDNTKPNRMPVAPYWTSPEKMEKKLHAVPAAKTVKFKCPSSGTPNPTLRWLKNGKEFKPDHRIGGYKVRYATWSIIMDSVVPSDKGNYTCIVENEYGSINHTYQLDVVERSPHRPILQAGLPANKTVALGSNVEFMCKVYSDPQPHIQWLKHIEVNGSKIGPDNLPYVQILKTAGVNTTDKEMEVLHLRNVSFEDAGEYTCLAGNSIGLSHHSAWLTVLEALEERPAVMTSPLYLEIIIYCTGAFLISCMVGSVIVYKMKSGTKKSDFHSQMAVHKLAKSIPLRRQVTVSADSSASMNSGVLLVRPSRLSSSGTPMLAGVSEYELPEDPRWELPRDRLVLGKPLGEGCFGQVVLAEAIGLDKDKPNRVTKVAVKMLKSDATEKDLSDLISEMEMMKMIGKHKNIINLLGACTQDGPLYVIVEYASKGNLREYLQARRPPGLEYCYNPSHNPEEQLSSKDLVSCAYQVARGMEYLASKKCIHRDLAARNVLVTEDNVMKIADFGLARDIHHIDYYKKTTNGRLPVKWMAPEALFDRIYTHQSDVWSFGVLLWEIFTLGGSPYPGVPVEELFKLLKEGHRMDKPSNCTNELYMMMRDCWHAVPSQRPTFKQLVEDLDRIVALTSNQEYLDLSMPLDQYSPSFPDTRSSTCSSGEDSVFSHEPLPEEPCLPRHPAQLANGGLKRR
# assay-overview: FGFR1 Enzyme Activity Assay
readout-name: IC50 (nM)

Solved cases below.
* C=CC(=O)N[C@H]1CCC[C@@H](C(=O)N2CCC(n3cc(-c4cc(OC)c5c(C#N)cnn5c4)cn3)CC2)C1 | 20
* COc1cc(-c2cnn(C3CCN(C(=O)C4CN(C(=O)/C=C/CF)C4)CC3)c2)cn2ncc(C#N)c12 | 20
* C=CS(=O)(=O)N[C@H]1C[C@H](C(=O)N2CCC(n3cc(-c4cc(OC)c5c(C#N)cnn5c4)cn3)CC2)C1 | 13
* COc1cc(-c2cnn(C3CCN(C(=O)/C=C/CN(C)C)CC3)c2)cn2ncc(C#N)c12 | 11
* C=CC(=O)N[C@H]1CC[C@H](C(=O)N2CCC(n3cc(-c4cc(OC)c5c(C#N)cnn5c4)cn3)CC2)C1 | 19

[1] C=CC(=O)N[C@@H]1CC[C@H](C(=O)N2CCC(n3cc(-c4cc(OC)c5c(C#N)cnn5c4)cn3)CC2)C1
[2] C=CS(=O)(=O)N[C@H]1C[C@@H](C(=O)N2CCC(n3cc(-c4cc(OC)c5c(C#N)cnn5c4)cn3)CC2)C1
[3] COc1cc(-c2cnn(C3CN(CC4CN(C(=O)/C=C/CN(C)C)C4)C3)c2)cn2ncc(C#N)c12
[4] C=C(F)C(=O)N1CC(C(=O)N2CCC(n3cc(-c4cc(OC)c5c(C#N)cnn5c4)cn3)CC2)C1
# desc sort on IC50 across 4 compounds Respond with the label ranking, as requested.
3, 4, 1, 2

[I] C=CS(=O)(=O)N[C@H]1CC[C@H](C(=O)N2CCC(n3cc(-c4cc(OC)c5c(C#N)cnn5c4)cn3)CC2)CC1
[II] C=CS(=O)(=O)Nc1ccc(C(=O)N2CCC(n3cc(-c4cc(OC)c5c(C#N)cnn5c4)cn3)CC2)cc1
Between I and II , which one shows the smaller IC50 number? Select an item and report its label.
II

[A] COc1cc(-c2cnn(C3CN(C(=O)C4CN(C(=O)/C=C/CN(C)C)C4)C3)c2)cn2ncc(C#N)c12
[B] C=CC(=O)N[C@@H]1CC[C@@H](C(=O)N2CCC(n3cc(-c4cc(OC)c5c(C#N)cnn5c4)cn3)CC2)C1
Would you let me know which has the greater IC50 value, A or B ? Select an item and report its label.
B

---

# target-of-assay: Fibroblast growth factor receptor 3 (Homo sapiens, UniProt P22607)
# Sequence (P22607 whole entry): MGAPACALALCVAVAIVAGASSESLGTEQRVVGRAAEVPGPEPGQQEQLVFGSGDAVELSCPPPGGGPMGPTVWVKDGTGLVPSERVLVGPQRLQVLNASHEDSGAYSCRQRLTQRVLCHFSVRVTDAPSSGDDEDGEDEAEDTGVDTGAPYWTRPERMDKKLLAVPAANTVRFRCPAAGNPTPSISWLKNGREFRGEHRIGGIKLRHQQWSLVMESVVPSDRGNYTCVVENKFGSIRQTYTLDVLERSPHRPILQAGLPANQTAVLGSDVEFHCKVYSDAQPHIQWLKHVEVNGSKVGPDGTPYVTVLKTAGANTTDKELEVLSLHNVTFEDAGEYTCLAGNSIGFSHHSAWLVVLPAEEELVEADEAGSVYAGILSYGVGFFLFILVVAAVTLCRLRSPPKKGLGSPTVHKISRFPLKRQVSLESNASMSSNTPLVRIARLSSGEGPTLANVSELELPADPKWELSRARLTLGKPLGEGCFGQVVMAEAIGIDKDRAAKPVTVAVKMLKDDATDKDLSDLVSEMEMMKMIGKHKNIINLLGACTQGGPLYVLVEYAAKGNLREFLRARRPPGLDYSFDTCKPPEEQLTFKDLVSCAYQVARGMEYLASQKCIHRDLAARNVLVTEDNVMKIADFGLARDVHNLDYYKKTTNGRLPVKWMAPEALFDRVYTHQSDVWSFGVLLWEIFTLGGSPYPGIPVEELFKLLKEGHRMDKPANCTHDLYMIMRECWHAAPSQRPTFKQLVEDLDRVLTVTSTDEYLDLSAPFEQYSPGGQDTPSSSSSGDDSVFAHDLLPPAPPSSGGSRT
# assay-overview: FGFR3 Enzyme Activity Assay
readout-name: IC50 (nM)

• COc1cc(-c2cnn(C3CN(CC4CN(C(=O)/C=C/CN(C)C)C4)C3)c2)cn2ncc(C#N)c12 = 4
• C=C(F)C(=O)N1CC(C(=O)N2CCC(n3cc(-c4cc(OC)c5c(C#N)cnn5c4)cn3)CC2)C1 = 4
• C=CC(=O)N[C@H]1CC[C@H](C(=O)N2CCC(n3cc(-c4cc(OC)c5c(C#N)cnn5c4)cn3)CC2)C1 = 3
• COc1cc(-c2cnn(C3CN(C(=O)C4CN(C(=O)/C=C/CN(C)C)C4)C3)c2)cn2ncc(C#N)c12 = 7
• C=CC(=O)N[C@@H]1CC[C@H](C(=O)N2CCC(n3cc(-c4cc(OC)c5c(C#N)cnn5c4)cn3)CC2)C1 = 3
• C=CS(=O)(=O)Nc1ccc(C(=O)N2CCC(n3cc(-c4cc(OC)c5c(C#N)cnn5c4)cn3)CC2)cc1 = 2

[a] C=CC(=O)N[C@H]1CCC[C@@H](C(=O)N2CCC(n3cc(-c4cc(OC)c5c(C#N)cnn5c4)cn3)CC2)C1
[b] C=CC(=O)N[C@@H]1CC[C@@H](C(=O)N2CCC(n3cc(-c4cc(OC)c5c(C#N)cnn5c4)cn3)CC2)C1
[c] COc1cc(-c2cnn(C3CCN(C(=O)/C=C/CN(C)C)CC3)c2)cn2ncc(C#N)c12
[d] C=CC(=O)N[C@H]1CC[C@H](C(=O)N2CC(n3cc(-c4cc(OC)c5c(C#N)cnn5c4)cn3)C2)C1
// ascending sort on recorded IC50 Respond with the label ranking, as requested.
b, c, a, d
(b: 2 nM, c: 4 nM, a: 7 nM, d: 11 nM)

[I] C=CC(=O)Nc1ccc(S(=O)(=O)N2CCC(n3cc(-c4cc(OC)c5c(C#N)cnn5c4)cn3)CC2)cc1
[II] C=CC(=O)N[C@H]1CC[C@@H](C(=O)N2CCC(n3cc(-c4cc(OC)c5c(C#N)cnn5c4)cn3)CC2)C1
Between I and II , which one shows the smaller IC50 number? Select an item and report its label.
II
(II: 1 nM, I: 5 nM)
